Target: FLT3xCD3 TCE
Experiment: SPR solution assay of competition binding with TCE
Conditions: solution competition
Reported property: IC50 (nM)
The response must be a number in nM with no trailing unit.

Reported IC50 of pGlu-DGEEELKGC (N-terminal pyroglutamate; VARIANT 1 Pyroglutamic acid) : 14.7

====

System: FLT3×CD3 TCE (SEQ ID NO: 93)
Sequence (as listed by the source): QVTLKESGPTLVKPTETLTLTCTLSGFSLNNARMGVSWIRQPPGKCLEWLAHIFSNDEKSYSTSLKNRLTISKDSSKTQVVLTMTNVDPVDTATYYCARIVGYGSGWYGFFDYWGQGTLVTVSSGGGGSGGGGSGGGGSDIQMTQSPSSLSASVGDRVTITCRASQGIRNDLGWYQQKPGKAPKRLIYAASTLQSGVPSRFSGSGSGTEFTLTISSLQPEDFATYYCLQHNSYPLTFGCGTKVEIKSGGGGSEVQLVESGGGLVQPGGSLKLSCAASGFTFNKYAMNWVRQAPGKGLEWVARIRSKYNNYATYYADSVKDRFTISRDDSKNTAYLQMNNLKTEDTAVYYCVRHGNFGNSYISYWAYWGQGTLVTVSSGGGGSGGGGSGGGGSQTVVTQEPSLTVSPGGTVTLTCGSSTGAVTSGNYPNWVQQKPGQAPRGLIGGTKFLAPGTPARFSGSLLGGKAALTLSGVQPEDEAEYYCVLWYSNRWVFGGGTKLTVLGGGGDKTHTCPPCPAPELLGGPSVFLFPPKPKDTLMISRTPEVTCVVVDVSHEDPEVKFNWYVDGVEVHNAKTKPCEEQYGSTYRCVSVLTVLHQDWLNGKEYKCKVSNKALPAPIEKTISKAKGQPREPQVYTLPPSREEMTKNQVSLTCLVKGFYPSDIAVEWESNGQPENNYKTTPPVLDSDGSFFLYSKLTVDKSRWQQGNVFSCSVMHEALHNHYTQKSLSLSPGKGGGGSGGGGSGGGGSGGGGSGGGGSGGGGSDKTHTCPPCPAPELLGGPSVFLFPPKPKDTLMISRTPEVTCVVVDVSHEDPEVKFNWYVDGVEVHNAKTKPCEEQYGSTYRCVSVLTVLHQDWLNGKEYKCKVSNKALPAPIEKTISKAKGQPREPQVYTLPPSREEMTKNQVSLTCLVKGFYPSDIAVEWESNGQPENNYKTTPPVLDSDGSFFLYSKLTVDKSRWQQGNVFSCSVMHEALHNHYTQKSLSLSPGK
Assay: Association kinetics by KinExA (Table 5)
Assay type: binding
Conditions: KinExA, FLT3×CD3 TCE
Where no end group is shown, it is not given here. [ ]: non-standard residue; d: D form. pGlu = O=C1CC[C@@H](C(=O)O)N1; P(Dap) = not defined here
Reported property: koff
The answer should read as a number with its unit following.

Reported koff of QDGNEEMG-P(Dap)-GMEENGDQ (chain 1 QDGNEEMG-{P(Dap)}; reading uncertain; also: chains linked via Dap residue 'P(Dap)') : 0.0075 s⁻¹

Reported koff of `QDGNEEMGK` : 0.0179 s⁻¹

Reported koff of (pE-DGNEEMGKGMEENGDQC)4-PEG(20 kDa) ([pGlu]DGNEEMGKGMEENGDQC; also: four copies attached to PEG(20 kDa), site not given here) : 0.00195 s⁻¹

Reported koff of QDGNEEMG-K(Nϵ)-GMEENGDQ (chain 1 QDGNEEMGK; also: branched: chains joined through a Lys, chain 2 on Lys Nε, direction not given here) : 0.00447 s⁻¹

Reported koff of `QDGNEEMGKQDGNEEMG` : 0.00497 s⁻¹

Reported koff of (QDGNEEMGKGMEENGDQC)4 - PEG(20 kDa) (also: four copies conjugated to PEG 20 kDa) : 0.0047 s⁻¹

Reported koff of `(QDGNEEMG)3K` : 0.00016 s⁻¹

Reported koff of `QDGNEEMGGMEENGDQ` : 0.00471 s⁻¹

Reported koff of QDGNEEMG [reference compound] : 0.0248 s⁻¹

Reported koff of `QDGNEEMGQDGNEEMG` : 0.00586 s⁻¹

====

Target: DLL3xCD3 TCE SEQ ID NO 104
Sequence (as listed by the source): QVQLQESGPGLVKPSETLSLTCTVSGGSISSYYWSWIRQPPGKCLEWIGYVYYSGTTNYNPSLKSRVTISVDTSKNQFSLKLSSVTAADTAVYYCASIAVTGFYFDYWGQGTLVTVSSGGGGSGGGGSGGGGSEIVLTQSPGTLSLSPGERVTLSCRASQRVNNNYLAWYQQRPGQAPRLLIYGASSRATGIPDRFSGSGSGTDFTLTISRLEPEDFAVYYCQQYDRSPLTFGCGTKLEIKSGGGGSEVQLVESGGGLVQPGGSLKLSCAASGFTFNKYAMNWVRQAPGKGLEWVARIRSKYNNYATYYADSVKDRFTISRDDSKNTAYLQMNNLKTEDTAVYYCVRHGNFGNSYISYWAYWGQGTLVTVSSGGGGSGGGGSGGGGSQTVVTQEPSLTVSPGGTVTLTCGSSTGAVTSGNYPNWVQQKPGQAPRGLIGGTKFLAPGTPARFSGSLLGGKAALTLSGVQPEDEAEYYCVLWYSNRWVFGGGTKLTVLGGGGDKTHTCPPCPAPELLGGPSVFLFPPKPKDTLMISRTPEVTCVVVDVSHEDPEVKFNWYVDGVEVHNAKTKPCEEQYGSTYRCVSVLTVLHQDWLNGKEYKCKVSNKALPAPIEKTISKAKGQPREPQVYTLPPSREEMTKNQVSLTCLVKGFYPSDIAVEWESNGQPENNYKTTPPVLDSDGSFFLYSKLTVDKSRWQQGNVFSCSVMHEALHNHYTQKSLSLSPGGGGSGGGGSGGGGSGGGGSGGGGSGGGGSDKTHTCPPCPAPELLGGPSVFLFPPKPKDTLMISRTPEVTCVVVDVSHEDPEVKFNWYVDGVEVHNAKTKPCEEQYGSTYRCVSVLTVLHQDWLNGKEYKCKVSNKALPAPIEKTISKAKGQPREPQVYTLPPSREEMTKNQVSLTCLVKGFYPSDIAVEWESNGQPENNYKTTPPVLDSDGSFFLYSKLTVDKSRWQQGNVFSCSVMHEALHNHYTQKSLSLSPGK
Assay: SPR assay of immobilized peptides binding with TCE
Conditions: immobilized peptide, Kinetic 1:1 Binding
Reported property: pKd
Formally, pKd is defined as -log10 of the concentration c, with c in mol/L.

Reported pKd of pGlu-DGEEELKGC (N-terminal pyroglutamate; VARIANT 1 Pyroglutamic acid) : 7.69

====

Target: FLT3×CD3 TCE (SEQ ID NO: 93)
Experiment: Equilibrium binding affinity measurement by KinExA (Table 5)
Settings: KinExA, FLT3×CD3 TCE as constant binding partner
Where no end group is shown, it is not given here. P(Dap) = not defined here
Reported property: pKd
Formally, pKd is defined as -log10 of the concentration c, with c in mol/L.

Reported pKd of QDGNEEMG-K(Nϵ)-GMEENGDQ (chain 1 QDGNEEMGK; also: branched: chains joined through a Lys, chain 2 on Lys Nε, direction not given here) : 8.99

Reported pKd of QDGNEEMG-P(Dap)-GMEENGDQ (chain 1 QDGNEEMG-{P(Dap)}; reading uncertain; also: chains linked via Dap residue 'P(Dap)') : 8.96

====

Molecular target: CDH3-CD3-MSLN-CD3 TCE (SEQ ID NO 255)
Sequence (as listed by the source): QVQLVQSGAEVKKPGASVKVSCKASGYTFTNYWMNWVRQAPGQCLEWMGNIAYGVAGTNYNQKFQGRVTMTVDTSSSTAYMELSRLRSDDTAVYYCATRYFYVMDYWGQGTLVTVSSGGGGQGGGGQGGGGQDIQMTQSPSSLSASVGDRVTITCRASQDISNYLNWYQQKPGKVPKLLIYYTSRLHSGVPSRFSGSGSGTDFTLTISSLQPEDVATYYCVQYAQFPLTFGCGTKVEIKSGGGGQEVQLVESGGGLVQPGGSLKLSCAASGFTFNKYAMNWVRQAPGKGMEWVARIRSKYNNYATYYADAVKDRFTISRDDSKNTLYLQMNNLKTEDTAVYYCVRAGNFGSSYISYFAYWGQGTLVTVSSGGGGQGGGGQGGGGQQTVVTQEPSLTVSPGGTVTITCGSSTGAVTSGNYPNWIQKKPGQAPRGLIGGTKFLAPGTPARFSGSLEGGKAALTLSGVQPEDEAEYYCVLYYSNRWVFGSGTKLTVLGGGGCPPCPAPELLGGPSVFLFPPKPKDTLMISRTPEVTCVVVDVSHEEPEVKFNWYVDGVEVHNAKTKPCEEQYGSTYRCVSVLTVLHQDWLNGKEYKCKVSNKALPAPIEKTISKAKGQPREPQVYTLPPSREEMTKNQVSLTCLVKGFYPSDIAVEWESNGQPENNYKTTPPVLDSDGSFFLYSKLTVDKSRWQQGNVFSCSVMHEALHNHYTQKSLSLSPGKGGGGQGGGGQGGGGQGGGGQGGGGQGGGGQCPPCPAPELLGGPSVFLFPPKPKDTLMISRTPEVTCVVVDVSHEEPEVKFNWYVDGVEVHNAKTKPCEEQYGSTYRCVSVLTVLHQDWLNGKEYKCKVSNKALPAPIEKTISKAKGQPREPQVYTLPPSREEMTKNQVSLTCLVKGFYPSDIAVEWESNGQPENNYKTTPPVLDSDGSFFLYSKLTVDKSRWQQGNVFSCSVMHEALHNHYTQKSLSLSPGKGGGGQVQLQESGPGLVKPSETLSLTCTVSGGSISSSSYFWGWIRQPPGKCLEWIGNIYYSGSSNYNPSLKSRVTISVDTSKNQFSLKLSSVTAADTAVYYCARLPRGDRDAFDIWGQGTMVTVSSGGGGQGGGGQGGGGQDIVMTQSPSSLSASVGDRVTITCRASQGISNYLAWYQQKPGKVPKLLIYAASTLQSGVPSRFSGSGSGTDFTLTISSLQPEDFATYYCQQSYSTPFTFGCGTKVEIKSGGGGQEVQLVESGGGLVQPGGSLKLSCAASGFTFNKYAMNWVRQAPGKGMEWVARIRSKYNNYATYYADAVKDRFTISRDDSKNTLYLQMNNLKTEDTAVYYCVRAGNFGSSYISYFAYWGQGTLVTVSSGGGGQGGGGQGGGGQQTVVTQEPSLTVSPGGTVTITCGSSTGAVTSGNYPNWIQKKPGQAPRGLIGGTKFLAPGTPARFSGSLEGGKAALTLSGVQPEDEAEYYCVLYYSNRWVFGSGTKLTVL
Test: SPR assay of immobilized peptides binding with TCE
Settings: immobilized peptide, SS Affinity model
Reported property: Kd (nM)
The response must be a number in nM with no trailing unit.

Reported Kd of pGlu-DGEEELKGC (N-terminal pyroglutamate; VARIANT 1 Pyroglutamic acid) : 72.5
